Target chain: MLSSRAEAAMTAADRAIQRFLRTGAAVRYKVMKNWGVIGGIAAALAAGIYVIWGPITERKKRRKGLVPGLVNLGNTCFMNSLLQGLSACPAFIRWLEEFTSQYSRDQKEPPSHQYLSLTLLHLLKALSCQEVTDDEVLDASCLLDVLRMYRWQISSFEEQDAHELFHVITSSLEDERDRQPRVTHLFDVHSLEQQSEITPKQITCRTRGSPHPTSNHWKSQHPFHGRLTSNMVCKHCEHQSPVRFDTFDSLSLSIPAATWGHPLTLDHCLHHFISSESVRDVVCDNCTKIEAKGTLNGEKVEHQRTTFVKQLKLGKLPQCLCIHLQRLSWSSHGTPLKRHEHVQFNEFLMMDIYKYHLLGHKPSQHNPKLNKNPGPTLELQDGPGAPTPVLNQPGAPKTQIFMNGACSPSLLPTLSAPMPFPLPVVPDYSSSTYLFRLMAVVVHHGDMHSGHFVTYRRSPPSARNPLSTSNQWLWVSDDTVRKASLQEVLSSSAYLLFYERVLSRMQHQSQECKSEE
pIC50: −log10 of the molar value.
Metric: pIC50

INSERT INTO measurements (query_smiles, metric, observed_measurement) VALUES
  ('CC(C)(C)NS(=O)(=O)c1ccc(NC(=O)[C@H]2CCCN2C(=O)c2ccc(F)cc2)cc1', 'pIC50', '< 5.00');
